biological target: Human OTUB1 wild-type (Homo sapiens, UniProt Q96FW1); construct: His tag (N); made in house; host or cells: E. coli BL21-CodonPlus (DE3)-RIPIL; experiment: Covalent modification of OTUB1 (adduct formation), mass spectrometry-based assay (OTUB1 covalent binders; selected CFTR or cGAS based bivalent compounds); type: binding; settings: covalent adduct formation with OTUB1 protein
Sequence (Q96FW1 whole entry): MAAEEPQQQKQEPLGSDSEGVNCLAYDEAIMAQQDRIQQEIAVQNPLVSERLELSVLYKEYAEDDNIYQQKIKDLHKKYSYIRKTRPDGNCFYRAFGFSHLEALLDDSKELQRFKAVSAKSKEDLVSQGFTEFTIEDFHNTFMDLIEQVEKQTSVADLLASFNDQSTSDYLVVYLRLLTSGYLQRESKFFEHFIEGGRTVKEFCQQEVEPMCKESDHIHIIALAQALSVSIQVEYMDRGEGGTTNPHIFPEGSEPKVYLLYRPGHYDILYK
measurement-name: % of OTUB1 modified (%)

The examples below pair each entry with its known result.
- compound: "Cc1ccsc1N1CCN(C(=O)/C=C/CN(C)C)CC1=O"
  % of OTUB1 modified, %: 70
- compound: "Cc1ccc(C(=O)N2C3CCC2CN(C(=O)/C=C/CN(C)C)C3)s1"
  % of OTUB1 modified, %: 15

P. CC(C)c1ccc(NC(=O)C2CCN(C(=O)/C=C/CN(C)C)CC2)s1
Q. CN(C)C/C=C/C(=O)N1CCN(c2cc3ccccc3o2)C(=O)C1
Exercise: API: POST /compare with P and Q ; response names the item with higher % of OTUB1 modified. When you have decided, please share the label of that item.
Key: Q
(Q: 40%, P: 3%)

a. Cc1ccc(C(=O)N2CCC3(CC2)CN(C(=O)/C=C/CN(C)C)C3)s1
b. Cc1ccc(N2CC3(CCN(C(=O)/C=C/CN(C)C)CC3)C2)s1
Exercise: Would you mind telling me which has the lower recorded % of OTUB1 modified between a and b ? Respond with the label that goes with your answer.
Key: b
